- Test system: Saccharomyces cerevisiae
- test.method.notes: transcriptional activation domain activity (GFP:mCherry ratio, weighted mean of sorted bins, harmonized to initial dataset scale) (arbitrary fluorescence ratio units); higher = stronger transcriptional activation
- stated.conditions: beta-estradiol 1 µM; induction time 4 h
# label = Condition met if transcriptional activation domain activity >= 50000 else Condition not met

MSRVRLAPEGHMFFFVLIVFIFCFFCLFLFLAGDLKGGWLFFLRFGMGWVFLG | Condition not met
MEWVRLLSKEVLLFYSIFFFSFVSFTVLTLFPLHESSILSRLLIFIYPLRHLV | Condition not met
SSSEEEVEVEVDKKTGVKRKRVKKQKVKKDVHNLVWSVVSQKKVFTDCWLGVL | Condition met
MFLPIVPFMLMLLRLLRLLRLLMLLMLLMLLPLFLFLFLLVMLCLFPLILLLL | Condition met
DKEKMEDGLIRVRLYFFTKLAGKPFYPTLLWSCLHSLTLKRLVALLRKSQLSA | Condition met
MIAVFFYYFLLFFYITCEFPVLCCGSLFFFFFFFFCFCDIYCISFCLLAHYHY | Condition not met
RVFLFRLMLSLIYTFLGSLCVTGAVWAYRVNWKVNGNQFVLSWMAIWLFAHCN | Condition not met
ATLNLIFTIDLLNFSFWSELPEDERFCIEYRGKRWTGYWSLVAALQRALDEGV | Condition not met
MSSNFFGASNNAGQGSGTGASAPLFGAPKPADGGAAPAVGGLFGAKPAASGTG | Condition not met
MLIILLSSLVLWRLGSPCFFYTLFLFYISERSISQLPPPPTLLSILFFFTFIA | Condition met
MKIHECTGVVYIGNVLCHKQPQVLLGLMFFMDLTLFFLDSYLWYIICNTIFSV | Condition met
RGGGGGGKRGSRAGSGIAADSKEKGNDGEVKLKDKEKGRSKEKKSGKEGGGAA | Condition not met
AQKVKNESDTDERPAPVKKGRKAATSKVKDESEDEAPAPAPAKRGRRAAAVKA | Condition not met
DKATMRRAFFERIVTERINIMGKMSISLIHSLIVDCMFLSTARSFLWLLWAYV | Condition met
AVVVTVWKLCDHPVMAWILGLIRCLTKKLKEVRQCKEELKQFFRDVVCKIEIA | Condition not met
MPNCLNIRFFLFFLLKFLYAPLSFLLFPYPSHAYLFFHVLLLINCLFVDVIPV | Condition met
KHLAEAGLGIAAAGAAKELYDHRKHHRSSSVSSSGGEHNHNGRHIAAAALGAT | Condition not met
LRLVYCQVKKKKYKSINRYVAIHELSYNVMIWRFLAIYHSSQRLKWSIFLLSF | Condition not met
RLRLSCYIMMCVVTSYSTWAIVSGYFTCVPVAKFWDPTIKGHCLNFQALWFFN | Condition met
RGERGQGAGGRGEGEGRGAGGERERRGGEREEGRGRERDERQGGKRERERGQG | Condition not met
LNLRRPLAFGGMATLLTYLIVPIYFSGVCYRLRLTLPPFLFLILRVSFELFVL | Condition met
YTNVYRCIKDEVYLLLSRLSLNWRKQDDYIWLLNLWTIWAAPWRLGNVPIISG | Condition met
ARVQVNFWFFLFVYYGFYNLTALMWITKVFNLYSLNWWPSTMGFPLTITLIAI | Condition met
KLGAAGGGRGSERDKRRRGEGERGGGDAVARAGEGEGRGRGRRRRKRSAACAG | Condition not met
MVLLTTLSKKTTIVTVLCSTVINMGKFGFTRHNHRCMRTGALLCLLLFLAYHF | Condition not met
MILIVFSLLLSFPMFLERVLFFPLSFLFFFSPSFCLSYTQPSPLTMPFFSYFC | Condition met
MCRCFFWSFLVFFVFFSLLCLFVSFCVFLCFAFLCFVFFVFCFFCFFCLFCVF | Condition met
MWCTRWFLPLLLLPLPTAPPYFLLLFLFSLTMHAKPCFYCIVLLTTLFVSSCY | Condition not met
MRDIIGISIFLFFSLFLFYLSFCFCMRNVNLSFSLFILTLIDCLTDLLIMVPI | Condition met
MELVLHCFYLGAIRKPGHTYDSWSSDTPFQLSMIGDSNLLIIWLWLLIPWRSF | Condition met
MWCTRWFLPLLLLPLPTAPPFFLALFLISLTLHSKPCFYCILLLTTLFLTSCY | Condition not met
TTLTEKGSQVMEKNMDQLDSVHNLNDDDLQQLLEDLGNIDHSDEKLWKEITDQ | Condition met
DKDEDAGAVEGEGGVVNANGKKTSGDEAGGERKKKQKQKEREKGGEDGAGKKG | Condition not met
LLYLGCRWCTLIAIIFHFLGFDGGHRIDCQFMGYFSFTCASALIVLRIVAFWA | Condition met
LLNVHVCVIYFVGWIVSLFQFCQIAIQQPTLDWVHCLPYILRVLLGFDLVYVT | Condition met
IPGPILLCSLTALSCLTLFTLLVSIYWSVSSVCHLIFLTILWILRCLVTLLRF | Condition not met
